Biological target: T1, PUF4 RNA-binding domain (Saccharomyces cerevisiae, UniProt P25339 537-888)
T1 sequence: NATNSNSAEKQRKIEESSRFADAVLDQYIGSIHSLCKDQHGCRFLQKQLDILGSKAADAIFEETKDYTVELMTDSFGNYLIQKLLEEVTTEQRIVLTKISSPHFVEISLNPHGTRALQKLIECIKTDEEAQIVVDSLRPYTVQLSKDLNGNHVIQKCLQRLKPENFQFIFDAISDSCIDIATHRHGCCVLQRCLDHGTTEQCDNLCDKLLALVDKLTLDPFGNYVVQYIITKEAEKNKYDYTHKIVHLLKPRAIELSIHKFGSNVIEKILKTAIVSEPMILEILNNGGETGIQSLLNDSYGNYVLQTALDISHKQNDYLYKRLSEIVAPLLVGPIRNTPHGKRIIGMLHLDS
Assay: Mg; RNA-MaP; 20 mM Na-HEPES pH 7.4, 30 mM KOAc, 0.75 mM MgCl2, 0.1% Tween-20, 5% glycerol, 0.1 mg/mL BSA, 2 mM DTT; 25 C; 0.0125-409.6 nM protein
Conditions: tags: N-His6-TEV cleaved; C-SNAP kept, Cy3B-labelled; label: tethered on chip by stalled RNA polymerase
pKd: −log10 of the molar value.
Each record's pKd is compared with bottom bin: < 7; middle bin: ≥ 7 and < 8; top bin: ≥ 8 to give its class.

# count of solved cases: 3
Binder	Assigned label
UCUCUUACACACUAUUACUUCUCUU (ssRNA) [Id_ii_S1_P4E.4_K4.3_C4.2_[C-2A]_[T-1C]_H4.3_A4.1_F4.1_T4.2_[G10C]]	bottom bin
Ie_S4_P3E.2_K3.1_C3.2_H3.1_[+2CT]_A3.1_F3.1_T3.2 (ssRNA) RNA: UUUGACAACUGAUCGUUCUUUCUCUUGCUUAUAUAUAUUCUUUCUCGAUCAGUUGUCUUU	middle bin
UCUCUUUGUAACUAUCUCUU (ssRNA) [Ic_S1_P3E.1_K3.1_C3.1_H3.1_A3.1_[T5A]_[A6C]_F3.1_T3.1]	bottom bin

Attention now turns to another entry.
Query string: Could you place Id_ii_S2_P4E.2_K4.1_C4.2_[C-2G]_[T-1C]_H4.1_A4.1_F4.1_T4.2_[G10T]_[T11A] (ssRNA) RNA: UUUGAUUAAUAUGAUAUCGUUCUUUCUGCUGUAUAUUAUAUUCUUUCUCGAUAUCAUAUUAAUCUUU in its proper category? Many thanks.
Result string: top bin
